Origin of measurements: PubChem BioAssay (NCI)

# Tested on: BT-549 breast
# test description: NCI tumour cell line growth inhibition, 48 h; in the data active = GI50 below about 0.43 µM; inactive = the rest
Outcomes: yes = active, no = inactive

molecule	target desc	label value
CNC(=O)c1c(NC(=O)c2ccc(C(C)(C)C)cc2)sc2c1CCC(=O)C2	BT-549 breast	yes
Nc1ccc(C2=CC(c3ccc(Cl)cc3)N3C=CSC3=N2)cc1 (configuration not stated)	BT-549 breast	no
COc1cc(/C=N/Nc2ncnc3c2cnn3-c2ccccc2)ccc1O	BT-549 breast	no
COc1ccc2c(c1)c(-c1nc(-c3c[nH]c4ccncc34)cs1)cn2C	BT-549 breast	no
CCc1ccc(CCC(=O)Nc2ncc(Cc3ccc(Cl)cc3)s2)o1	BT-549 breast	no
C=C/C=C/[C@@H](O)CC(=C)C[C@H]1OC2[C@H](C)[C@@H](OC(=O)C[C@H]3C[C@H](OC(C)=O)C[C@@]4(C[C@@](C)(O)C[C@H](CC(=C)[C@@H](C)[C@H](OC(C)=O)[C@H](C)C(=O)C[C@@H]5C[C@H](OC)CC6(C[C@@H](O)C[C@H](/C=C\CCC[C@H]7O[C@](O)(C=C[C@H]7C)[C@H]2O)O6)O5)O4)O3)[C@@H]1O	BT-549 breast	yes
COC12C=C/C(=C(/C(=O)OCc3ccccn3)C(=O)CCCCCCCCC3(OC)C=C/C(=C(/C(=O)OCc4ccccn4)C(=O)CCCCCCCC1)O3)O2	BT-549 breast	yes
